# testedSystem: Human immunodeficiency virus type 1 reverse transcriptase (Human immunodeficiency virus 1, UniProt Q72547, K103N)
# experiment: Inhibition of HIV-1 reverse transcriptase K103N mutant assessed as reduction in dTTP incorporation using poly(rA)/oligo(dT)16 as template/primer after 40 mins by PicoGreen dye based spectrofluorometric analysis
pIC50: −log10 of the molar value.
Recorded pIC50 values for a group of molecules are listed next.

testSmiles | valueModifier | pIC50
Cc1cccc(CCS(=O)(=O)n2c(=O)[nH]c3ccc(Cl)cc32)c1 | = | 3.92
O=c1[nH]c2ccc(Cl)cc2n1S(=O)(=O)Cc1cccc(Cl)c1 | < | 3.47
O=c1[nH]c2ccc(Cl)cc2n1S(=O)(=O)Cc1ccccc1 | < | 3.43
O=c1[nH]c2ccc(Cl)cc2n1S(=O)(=O)CCc1ccccc1 | < | 3.45
O=c1[nH]c2ccc(Cl)cc2n1S(=O)(=O)CCc1cccc(Cl)c1 | < | 3.49
O=c1[nH]c2ccc(Cl)cc2n1S(=O)(=O)CCc1ccc(Cl)cc1 | = | 3.64
Cc1ccc(CS(=O)(=O)n2c(=O)[nH]c3ccc(Cl)cc32)cc1 | = | 3.55
O=c1[nH]c2ccc(Cl)cc2n1S(=O)(=O)Cc1ccc(Cl)cc1 | < | 3.47
Cc1cccc(CS(=O)(=O)n2c(=O)[nH]c3ccc(Cl)cc32)c1 | = | 3.98
Cc1ccccc1CCS(=O)(=O)n1c(=O)[nH]c2ccc(Cl)cc21 | = | 4.05
O=c1[nH]c2ccc(Cl)cc2n1S(=O)(=O)Cc1ccccc1Cl | < | 3.47

###

# experiment: Selectivity index, ratio of CC50 for human MT4 cells to EC50 for HIV1 3B infected in human MT4 cells
# Format: toxicity, cell-based
# conditionLabel: HIV1 3B infected MT4 cells, read-out: Ratio CC50/EC50
experimentalEndpoint: selectivity ratio

testSmiles | experimentalEndpoint | valueModifier | reportedMeasurement
Cc1cccc(CS(=O)(=O)n2c(=O)[nH]c3ccc(Cl)cc32)c1 | selectivity ratio | = | 1380
O=c1[nH]c2ccc(Cl)cc2n1S(=O)(=O)Cc1ccccc1 | selectivity ratio | = | 187
O=c1[nH]c2ccc(Cl)cc2n1S(=O)(=O)CCc1ccccc1Cl | selectivity ratio | < | 1

###

pIC50 by entry:
# testedSystem: Human immunodeficiency virus type 1 reverse transcriptase (Human immunodeficiency virus 1, UniProt Q72547, V106A)
# experiment: Inhibition of HIV-1 reverse transcriptase V106A mutant assessed as reduction in dTTP incorporation using poly(rA)/oligo(dT)16 as template/primer after 40 mins by PicoGreen dye based spectrofluorometric analysis
pIC50: −log10 of the molar value.
experimentalEndpoint: pIC50

testSmiles | experimentalEndpoint | valueModifier | reportedMeasurement
Cc1ccccc1CCS(=O)(=O)n1c(=O)[nH]c2ccc(Cl)cc21 | pIC50 | = | 4.36
Cc1cccc(CS(=O)(=O)n2c(=O)[nH]c3ccc(Cl)cc32)c1 | pIC50 | = | 6.05
O=c1[nH]c2ccc(Cl)cc2n1S(=O)(=O)CCc1ccccc1 | pIC50 | < | 3.45

###

# experiment: Selectivity index, ratio of CC50 for human MT4 cells to EC50 for HIV1 3B infected in human MT4 cells
# Format: toxicity, cell-based
# conditionLabel: HIV1 3B infected MT4 cells, read-out: Ratio CC50/EC50
Below, each of the compounds is paired with its reported selectivity ratio value.
experimentalEndpoint: selectivity ratio

testSmiles | valueModifier | reportedMeasurement
O=c1[nH]c2ccc(Cl)cc2n1S(=O)(=O)CCc1ccccc1 | < | 1
O=c1[nH]c2ccc(Cl)cc2n1S(=O)(=O)Cc1cccc(Cl)c1 | = | 134
Cc1ccc(CS(=O)(=O)n2c(=O)[nH]c3ccc(Cl)cc32)cc1 | = | 48
Cc1cccc(CCS(=O)(=O)n2c(=O)[nH]c3ccc(Cl)cc32)c1 | < | 1
O=c1[nH]c2ccc(Cl)cc2n1S(=O)(=O)CCc1cccc(Cl)c1 | < | 1
Cc1ccccc1CS(=O)(=O)n1c(=O)[nH]c2ccc(Cl)cc21 | = | 24
O=c1[nH]c2ccc(Cl)cc2n1S(=O)(=O)Cc1ccccc1Cl | = | 271
O=c1[nH]c2ccc(Cl)cc2n1S(=O)(=O)Cc1ccc(Cl)cc1 | = | 15
O=c1[nH]c2ccc(Cl)cc2n1S(=O)(=O)CCc1ccc(Cl)cc1 | < | 1
Cc1ccccc1CCS(=O)(=O)n1c(=O)[nH]c2ccc(Cl)cc21 | < | 1
Cc1ccc(CCS(=O)(=O)n2c(=O)[nH]c3ccc(Cl)cc32)cc1 | < | 1

###

The entries below are paired with their reported pIC50.
# testedSystem: Human immunodeficiency virus type 1 reverse transcriptase (Human immunodeficiency virus 1)
# experiment: Inhibition of recombinant wild-type HIV-1 reverse transcriptase p66/p51 RNA-dependent DNA polymerase activity expressed in Escherichia coli JM109 assessed as reduction in dTTP incorporation using poly(rA)/oligo(dT)16 as template/primer after 40 mins by PicoGreen dye based spectrofluorometric analysis
pIC50: −log10 of the molar value.

testSmiles | pIC50
Cc1ccc(CCS(=O)(=O)n2c(=O)[nH]c3ccc(Cl)cc32)cc1 | 3.66
O=c1[nH]c2ccc(Cl)cc2n1S(=O)(=O)CCc1ccccc1 | 4.12
O=c1[nH]c2ccc(Cl)cc2n1S(=O)(=O)Cc1ccccc1 | 4.77
Cc1ccc(CS(=O)(=O)n2c(=O)[nH]c3ccc(Cl)cc32)cc1 | 5.65
O=c1[nH]c2ccc(Cl)cc2n1S(=O)(=O)Cc1ccc(Cl)cc1 | 4.74
O=c1[nH]c2ccc(Cl)cc2n1S(=O)(=O)Cc1ccccc1Cl | 5.89
O=c1[nH]c2ccc(Cl)cc2n1S(=O)(=O)Cc1cccc(Cl)c1 | 5.22
O=c1[nH]c2ccc(Cl)cc2n1S(=O)(=O)CCc1cccc(Cl)c1 | 3.88
Cc1ccccc1CS(=O)(=O)n1c(=O)[nH]c2ccc(Cl)cc21 | 4.68
Cc1cccc(CCS(=O)(=O)n2c(=O)[nH]c3ccc(Cl)cc32)c1 | 4.41
Cc1cccc(CS(=O)(=O)n2c(=O)[nH]c3ccc(Cl)cc32)c1 | 6.10
Cc1ccccc1CCS(=O)(=O)n1c(=O)[nH]c2ccc(Cl)cc21 | 4.54
O=c1[nH]c2ccc(Cl)cc2n1S(=O)(=O)CCc1ccc(Cl)cc1 | 4.02
O=c1[nH]c2ccc(Cl)cc2n1S(=O)(=O)CCc1ccccc1Cl | 3.94

###

Collected EC50 values appear next to each entry.
# Tested on: Human immunodeficiency virus 1
# experiment: Antiviral activity against HIV1 3B infected in human MT4 cells assessed as inhibition of virus-induced cytopathic effect after 5 days by MTT assay
# Format: functional, cell-based
# conditionLabel: Human immunodeficiency virus 1, 3B, MT4, 120 h

testSmiles | EC50
O=c1[nH]c2ccc(Cl)cc2n1S(=O)(=O)Cc1cccc(Cl)c1 | 1.14 µM
O=c1[nH]c2ccc(Cl)cc2n1S(=O)(=O)CCc1cccc(Cl)c1 | > 64 µM
Cc1ccc(CCS(=O)(=O)n2c(=O)[nH]c3ccc(Cl)cc32)cc1 | > 160 µM
O=c1[nH]c2ccc(Cl)cc2n1S(=O)(=O)CCc1ccc(Cl)cc1 | > 91 µM

###

Quick reference for IC50 among some compounds
# testedSystem: Human immunodeficiency virus type 1 reverse transcriptase (Human immunodeficiency virus 1, UniProt Q72547, Y188L)
# experiment: Inhibition of HIV-1 reverse transcriptase Y188L mutant assessed as reduction in dTTP incorporation using poly(rA)/oligo(dT)16 as template/primer after 40 mins by PicoGreen dye based spectrofluorometric analysis

testSmiles | IC50
O=c1[nH]c2ccc(Cl)cc2n1S(=O)(=O)CCc1ccccc1Cl | > 323 µM
Cc1ccc(CCS(=O)(=O)n2c(=O)[nH]c3ccc(Cl)cc32)cc1 | 249 µM
O=c1[nH]c2ccc(Cl)cc2n1S(=O)(=O)CCc1ccccc1 | > 356 µM
Cc1cccc(CS(=O)(=O)n2c(=O)[nH]c3ccc(Cl)cc32)c1 | > 356 µM
O=c1[nH]c2ccc(Cl)cc2n1S(=O)(=O)CCc1cccc(Cl)c1 | > 323 µM
O=c1[nH]c2ccc(Cl)cc2n1S(=O)(=O)Cc1cccc(Cl)c1 | > 335 µM
Cc1cccc(CCS(=O)(=O)n2c(=O)[nH]c3ccc(Cl)cc32)c1 | 219 µM
Cc1ccc(CS(=O)(=O)n2c(=O)[nH]c3ccc(Cl)cc32)cc1 | 280 µM
O=c1[nH]c2ccc(Cl)cc2n1S(=O)(=O)Cc1ccc(Cl)cc1 | > 335 µM
O=c1[nH]c2ccc(Cl)cc2n1S(=O)(=O)Cc1ccccc1 | > 371 µM
Cc1ccccc1CCS(=O)(=O)n1c(=O)[nH]c2ccc(Cl)cc21 | 165 µM

###

# testedSystem: Human immunodeficiency virus type 1 reverse transcriptase (Human immunodeficiency virus 1, UniProt Q72547, G190A)
# experiment: Inhibition of HIV-1 reverse transcriptase G190A mutant assessed as reduction in dTTP incorporation using poly(rA)/oligo(dT)16 as template/primer after 40 mins by PicoGreen dye based spectrofluorometric analysis
pIC50: −log10 of the molar value.
Below, each entry is listed with its recorded pIC50.

testSmiles | valueModifier | pIC50
O=c1[nH]c2ccc(Cl)cc2n1S(=O)(=O)CCc1ccc(Cl)cc1 | = | 4.16
Cc1cccc(CS(=O)(=O)n2c(=O)[nH]c3ccc(Cl)cc32)c1 | = | 3.88
O=c1[nH]c2ccc(Cl)cc2n1S(=O)(=O)CCc1ccccc1 | < | 3.45
Cc1ccc(CS(=O)(=O)n2c(=O)[nH]c3ccc(Cl)cc32)cc1 | ≤ | 3.51
O=c1[nH]c2ccc(Cl)cc2n1S(=O)(=O)Cc1cccc(Cl)c1 | = | 3.59
Cc1cccc(CCS(=O)(=O)n2c(=O)[nH]c3ccc(Cl)cc32)c1 | = | 4.05
Cc1ccccc1CS(=O)(=O)n1c(=O)[nH]c2ccc(Cl)cc21 | < | 3.45
Cc1ccc(CCS(=O)(=O)n2c(=O)[nH]c3ccc(Cl)cc32)cc1 | = | 4.05
